Taken from paper PMC2671235.

Target: S100A11 (Homo sapiens, UniProt P31949)
Sequence (P31949 whole entry): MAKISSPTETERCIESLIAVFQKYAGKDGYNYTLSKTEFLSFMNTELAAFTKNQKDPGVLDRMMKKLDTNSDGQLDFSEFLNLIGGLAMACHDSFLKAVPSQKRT
Assay: Trp fluorescence titration of AnI with S100A11
Type: binding
Ends that are not written are not given here.
experimental endpoint: pKd
Please note pKd is a logarithmic value: minus log10 of concentration in mol/L. Answer with that number alone.

Measured pKd of Ac-AMVSEFLKQAWFIE [AnI] : 5.30

====

Biological target: S100A11 (Homo sapiens)
Experiment: ITC of AnI binding to Ca2+-S100A11
Ends that are not written are not given here.
experimental endpoint: Kd (µM)
Just the number please, in µM, no unit attached.

Measured Kd of Ac-AMVSEFLKQAWFIE [AnI] : 5
